Every entry's value here was drawn from the Human Domainome abundance scans (Beltran et al. 2025).

B1: Ankyrin-2, residues 3571 to 3650; numbered along this chain, Q01484 (parent)
chain: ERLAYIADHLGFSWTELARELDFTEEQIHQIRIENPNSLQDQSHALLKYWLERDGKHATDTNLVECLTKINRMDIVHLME

- Variants of: B1
- test_protocol: abundance fitness (aPCA) (normalised: wild type 0, dead -1); higher = more abundant; growth selection in yeast, the domain comes from the species named
- condition_notes: Homo sapiens
Label met for high-side abundance fitness (at or above -0.04) and not met for low-side abundance fitness (below it).

mutation_code: H57P
class_assignment: met

-- ask Would you say L46Y shows abundance fitness at minimum -0.04?
-- reply not met

-- ask Would you say S38F shows abundance fitness at minimum -0.04?
-- reply not met

-- ask Would you say E25F shows abundance fitness at minimum -0.04?
-- reply not met

-- ask Would you say Y49S shows abundance fitness at minimum -0.04?
-- reply met

-- ask Would you say G11H shows abundance fitness at minimum -0.04?
-- reply not met

-- ask Would you say R32I shows abundance fitness at minimum -0.04?
-- reply not met

-- ask Would you say T24S shows abundance fitness at minimum -0.04?
-- reply met
